target: fusion glycoprotein (F) of the MPV (non-D280N) used in the GFP-based neutralization assay of Table 23 (metapneumovirus); assay: cell-based or functional assay
# maps each entry to its MPV IC50 (ng/mL), GFP-based in vitro neutralization
Measure name: MPV IC50 (ng/mL), GFP-based in vitro neutralization

binder="MPH12-v16 (VH-FRGL-S63A/VL-D25S) (antibody, V domains shown, also called MPH12 VH-FRGL-S63A / MPH12 VL-D25S) VH: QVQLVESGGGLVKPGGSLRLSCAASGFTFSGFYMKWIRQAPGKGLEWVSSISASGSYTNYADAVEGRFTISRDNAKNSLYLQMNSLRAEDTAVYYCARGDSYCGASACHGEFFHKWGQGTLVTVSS VL: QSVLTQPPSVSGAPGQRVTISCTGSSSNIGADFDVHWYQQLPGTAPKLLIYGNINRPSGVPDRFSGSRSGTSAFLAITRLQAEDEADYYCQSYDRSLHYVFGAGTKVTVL" number=26.8
binder="MPH12-v35 (VH-FRGL-D62E/VL-FRGL-D25S) (antibody, V domains shown) VH: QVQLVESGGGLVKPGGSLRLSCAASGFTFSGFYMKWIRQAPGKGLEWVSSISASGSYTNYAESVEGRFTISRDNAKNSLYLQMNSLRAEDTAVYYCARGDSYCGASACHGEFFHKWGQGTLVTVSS VL: QSVLTQPPSVSGAPGQRVTISCTGSSSNIGADFDVHWYQQLPGTAPKLLIYGNINRPSGVPDRFSGSKSGTSASLAITGLQAEDEADYYCQSYDRSLHYVFGTGTKVTVL" number=39.9
binder="MPH12-v28 (VH-FRGL-S63A/VL-S26A) (antibody, V domains shown, also called MPH12 VH-FRGL-S63A / MPH12 VL-S26A) VH: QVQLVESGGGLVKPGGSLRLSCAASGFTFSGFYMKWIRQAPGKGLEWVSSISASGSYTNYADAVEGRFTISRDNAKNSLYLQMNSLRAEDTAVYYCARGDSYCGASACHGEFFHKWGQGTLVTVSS VL: QSVLTQPPSVSGAPGQRVTISCTGSDANIGADFDVHWYQQLPGTAPKLLIYGNINRPSGVPDRFSGSRSGTSAFLAITRLQAEDEADYYCQSYDRSLHYVFGAGTKVTVL" number=26.3
